Reference source: paper PMC4754667

- protocol: clinical
- reported conditions: human, in vivo, 10 mg/kg, Sunitinib Cmax, Mean
parameter: Cmax (ng/mL)
Numbers only, in ng/mL.

Q: # query: Cmax of entry CCN(CC)CCNC(=O)c1c(C)[nH]c(/C=C2\C(=O)Nc3ccc(F)cc32)c1C
Ans: 61.8

----------
- protocol: clinical
- reported conditions: human, in vivo, 3 mg/kg, Sunitinib Cmax, Mean
parameter: Cmax (ng/mL)
Answers are plain numbers, in ng/mL.

Q: // returns reported Cmax for input CCN(CC)CCNC(=O)c1c(C)[nH]c(/C=C2\C(=O)Nc3ccc(F)cc32)c1C
Ans: 64.2

----------
- protocol: clinical
- reported conditions: human, in vivo, 10 mg/kg, Sorafenib Cmax, Mean
parameter: Cmax

Q: Looking for the measured Cmax of CNC(=O)c1cc(Oc2ccc(NC(=O)Nc3ccc(Cl)c(C(F)(F)F)c3)cc2)ccn1 [Sorafenib, sorafenib] , can you help?
Ans: 559 ng/mL

----------
- protocol: clinical
- reported conditions: human, in vivo, 3 mg/kg, Sorafenib AUC (AUC0-12), Mean
parameter: AUC(0-t) (ng·h/mL)
Give bare numbers, in ng·h/mL.

Q: Need AUC(0-t), item CNC(=O)c1cc(Oc2ccc(NC(=O)Nc3ccc(Cl)c(C(F)(F)F)c3)cc2)ccn1
Ans: 2580

----------
- protocol: clinical
- reported conditions: human, in vivo, 3 mg/kg, Sorafenib Cmax, Mean
parameter: Cmax (ng/mL)
Numbers only, in ng/mL.

Q: So what does the record say about Cmax for CNC(=O)c1cc(Oc2ccc(NC(=O)Nc3ccc(Cl)c(C(F)(F)F)c3)cc2)ccn1 ?
Ans: 466

----------
- protocol: clinical
- reported conditions: human, in vivo, 3 mg/kg, Sorafenib Tmax, Mean
parameter: Tmax (h)
Give bare numbers, in h.

Q: Quick check: Tmax of CNC(=O)c1cc(Oc2ccc(NC(=O)Nc3ccc(Cl)c(C(F)(F)F)c3)cc2)ccn1 ?
Ans: 1.1

----------
- protocol: clinical
- reported conditions: human, in vivo, 10 mg/kg, Sorafenib AUC (AUC0-12), Mean
parameter: AUC(0-t)

Q: Find the recorded AUC(0-t) belonging to CNC(=O)c1cc(Oc2ccc(NC(=O)Nc3ccc(Cl)c(C(F)(F)F)c3)cc2)ccn1 and report it.
Ans: 3130 ng·h/mL

----------
- protocol: clinical
- reported conditions: human, in vivo, 10 mg/kg, Sunitinib AUC (AUC0-24), Mean
parameter: AUC(0-t) (ng·h/mL)
Give bare numbers, in ng·h/mL.

Q: Entry CCN(CC)CCNC(=O)c1c(C)[nH]c(/C=C2\C(=O)Nc3ccc(F)cc32)c1C [Sunitinib, sunitinib] has what AUC(0-t)?
Ans: 1250

----------
- protocol: clinical
- reported conditions: human, in vivo, 3 mg/kg, Sunitinib AUC (AUC0-24), Mean
parameter: AUC(0-t) (ng·h/mL)
Answers are plain numbers, in ng·h/mL.

Q: Which value of AUC(0-t) has been reported for CCN(CC)CCNC(=O)c1c(C)[nH]c(/C=C2\C(=O)Nc3ccc(F)cc32)c1C in the records?
Ans: 1300
